The reader will find reported EC50 values listed item by item below.
- TARGET_ENTITY: [NEK7]-[compound of formula (I)]-[CRBN/DDB1] complex (Homo sapiens, UniProt Q8TDX7+Q96SW2)
- Sequence (Q8TDX7 whole entry): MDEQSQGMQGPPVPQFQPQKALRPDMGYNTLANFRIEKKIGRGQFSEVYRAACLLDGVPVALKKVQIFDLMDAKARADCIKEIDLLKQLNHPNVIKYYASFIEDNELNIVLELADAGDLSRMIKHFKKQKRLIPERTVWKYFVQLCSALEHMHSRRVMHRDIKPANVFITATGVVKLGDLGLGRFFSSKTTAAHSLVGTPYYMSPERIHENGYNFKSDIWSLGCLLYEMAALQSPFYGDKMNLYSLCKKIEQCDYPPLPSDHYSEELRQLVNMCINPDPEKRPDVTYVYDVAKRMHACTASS
- Sequence (Q96SW2 whole entry): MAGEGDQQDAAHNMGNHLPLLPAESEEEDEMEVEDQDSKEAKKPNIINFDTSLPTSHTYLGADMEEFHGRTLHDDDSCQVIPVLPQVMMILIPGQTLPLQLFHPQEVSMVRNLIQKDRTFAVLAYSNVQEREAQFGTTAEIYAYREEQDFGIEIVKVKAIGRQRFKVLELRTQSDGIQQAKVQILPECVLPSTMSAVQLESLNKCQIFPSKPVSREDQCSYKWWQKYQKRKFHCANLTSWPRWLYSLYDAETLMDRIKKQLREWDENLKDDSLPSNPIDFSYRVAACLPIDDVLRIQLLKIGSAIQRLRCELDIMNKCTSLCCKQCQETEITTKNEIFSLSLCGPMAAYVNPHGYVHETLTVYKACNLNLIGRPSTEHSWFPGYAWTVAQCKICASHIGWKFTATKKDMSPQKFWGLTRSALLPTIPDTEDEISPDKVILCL
- Sequence (Q16531 whole entry partner): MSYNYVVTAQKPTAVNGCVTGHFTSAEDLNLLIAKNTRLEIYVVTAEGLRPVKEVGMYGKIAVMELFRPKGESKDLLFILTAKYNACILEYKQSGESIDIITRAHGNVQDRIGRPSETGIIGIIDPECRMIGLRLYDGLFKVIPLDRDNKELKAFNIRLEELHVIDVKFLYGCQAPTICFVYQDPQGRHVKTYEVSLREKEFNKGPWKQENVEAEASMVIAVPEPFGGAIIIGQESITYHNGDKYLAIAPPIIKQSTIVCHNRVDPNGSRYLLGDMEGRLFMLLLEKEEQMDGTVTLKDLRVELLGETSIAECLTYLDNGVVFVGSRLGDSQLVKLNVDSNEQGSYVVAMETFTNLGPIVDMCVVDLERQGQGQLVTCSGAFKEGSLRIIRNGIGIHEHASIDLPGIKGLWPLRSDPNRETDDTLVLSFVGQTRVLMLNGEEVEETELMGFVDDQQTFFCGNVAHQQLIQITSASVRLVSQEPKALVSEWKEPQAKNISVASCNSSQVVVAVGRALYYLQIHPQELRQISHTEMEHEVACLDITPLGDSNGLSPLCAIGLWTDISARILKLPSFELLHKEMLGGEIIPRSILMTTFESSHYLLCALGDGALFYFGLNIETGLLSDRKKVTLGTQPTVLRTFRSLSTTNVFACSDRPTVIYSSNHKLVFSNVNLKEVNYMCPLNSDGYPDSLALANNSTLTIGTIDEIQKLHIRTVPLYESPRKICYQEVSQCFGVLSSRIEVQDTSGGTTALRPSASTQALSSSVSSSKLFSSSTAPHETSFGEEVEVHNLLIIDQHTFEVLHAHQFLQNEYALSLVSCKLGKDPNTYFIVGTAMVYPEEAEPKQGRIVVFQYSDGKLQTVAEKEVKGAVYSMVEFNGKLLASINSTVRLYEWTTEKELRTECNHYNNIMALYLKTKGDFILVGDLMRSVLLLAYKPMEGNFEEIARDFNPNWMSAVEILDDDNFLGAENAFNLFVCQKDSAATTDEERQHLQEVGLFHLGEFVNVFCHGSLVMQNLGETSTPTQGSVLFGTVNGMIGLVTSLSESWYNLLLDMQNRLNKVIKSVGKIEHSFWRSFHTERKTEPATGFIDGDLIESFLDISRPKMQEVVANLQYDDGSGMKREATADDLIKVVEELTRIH
- PROTOCOL: HTRF ternary complex assay
- Assay type: binding
- ASSAY_CONTEXT: dose-response, 180 min at 25° C.; read-out: HTRF ternary complex Average pEC50 by molecule (converted)

In the examples that follow, each entry is paired with its recorded EC50.
1) O=C1CCC(N2C(=O)c3cccc4c(-c5ccccn5)ccc2c34)C(=O)N1 (centres unmarked); > 3160 nM
2) CCCCC1CCCC(c2ccc3c(c2)CN(C2CCC(=O)NC2=O)C3=O)N1 (mixture of isomers); 100 to 316 nM
3) O=C1CCC(N2Cc3cc(C4CCC(c5ccccc5)CN4)ccc3C2=O)C(=O)N1 (single isomer, unassigned) [32 Isomer 2]; 316 to 1000 nM
4) CC1c2cc(C3CCCCN3)ccc2C(=O)N1C1CCC(=O)NC1=O (centres unmarked); 316 to 1000 nM
5) O=C1CCCC(N2Cc3cc(C4CCCCN4)ccc3C2=O)C(=O)N1 (centres unmarked); > 3160 nM

Incoming: Complete the entry with EC50 for Cc1c(C2CCCCN2)ccc2c1CN(C1CCC(=O)NC1=O)C2=O (centres unmarked)
Outgoing: > 3160 nM

Incoming: Complete the entry with EC50 for O=C1CCC(N2Cc3cc(C4CCC(NC(=O)c5ccccc5)CN4)ccc3C2=O)C(=O)N1 (centres unmarked)
Outgoing: < 100 nM

Incoming: Complete the entry with EC50 for CC(C)C1CCC(c2ccc3c(c2)CN(C2CCC(=O)NC2=O)C3=O)NC1 (single isomer, unassigned) [55 Isomer 1]
Outgoing: 316 to 1000 nM
